In this section, each of the compounds is paired with its reported inhibition at 2 h, 10 µM.
target or test system: hERG (KCNH2) (Homo sapiens)
Sequence (Q12809 whole entry): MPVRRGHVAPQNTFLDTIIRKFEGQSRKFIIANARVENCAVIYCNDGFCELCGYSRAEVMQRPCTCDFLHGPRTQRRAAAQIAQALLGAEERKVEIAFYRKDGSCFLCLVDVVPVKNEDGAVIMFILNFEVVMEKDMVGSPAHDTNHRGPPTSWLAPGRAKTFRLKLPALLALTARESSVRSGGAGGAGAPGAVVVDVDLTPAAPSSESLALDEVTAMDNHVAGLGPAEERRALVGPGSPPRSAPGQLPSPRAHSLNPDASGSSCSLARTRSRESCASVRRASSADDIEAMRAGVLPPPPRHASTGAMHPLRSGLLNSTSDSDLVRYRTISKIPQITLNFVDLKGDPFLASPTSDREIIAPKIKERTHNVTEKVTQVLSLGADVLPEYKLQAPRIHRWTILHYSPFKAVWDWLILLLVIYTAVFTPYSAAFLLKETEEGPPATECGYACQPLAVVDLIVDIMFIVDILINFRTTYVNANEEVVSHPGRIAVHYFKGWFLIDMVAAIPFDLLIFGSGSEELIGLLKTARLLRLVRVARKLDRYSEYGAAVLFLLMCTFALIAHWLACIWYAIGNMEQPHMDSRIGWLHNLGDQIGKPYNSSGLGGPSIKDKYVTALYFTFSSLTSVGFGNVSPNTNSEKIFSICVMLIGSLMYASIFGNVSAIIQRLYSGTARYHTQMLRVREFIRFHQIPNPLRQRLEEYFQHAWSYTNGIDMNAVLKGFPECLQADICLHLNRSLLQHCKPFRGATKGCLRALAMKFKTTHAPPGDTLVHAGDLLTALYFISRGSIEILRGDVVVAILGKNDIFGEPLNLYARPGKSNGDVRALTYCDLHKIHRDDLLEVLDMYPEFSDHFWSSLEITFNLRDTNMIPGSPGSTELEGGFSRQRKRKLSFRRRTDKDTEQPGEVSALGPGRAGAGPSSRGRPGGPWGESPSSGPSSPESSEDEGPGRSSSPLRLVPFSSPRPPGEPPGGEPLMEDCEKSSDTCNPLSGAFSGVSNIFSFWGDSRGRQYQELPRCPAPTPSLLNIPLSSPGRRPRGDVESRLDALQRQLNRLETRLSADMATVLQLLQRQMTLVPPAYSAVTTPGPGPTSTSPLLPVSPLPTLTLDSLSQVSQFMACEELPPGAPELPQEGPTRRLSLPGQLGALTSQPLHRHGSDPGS
method notes: Inhibition of human ERG at 10 uM incubated for 2 hrs by fluorescence polarisation assay relative to control
Numbers only; they are read as %.

structure_smiles=NC(=S)N/N=C/c1ccc(-c2ccccc2)cc1 reported_value=38.5
structure_smiles=COc1ccc(/C=N/NC(N)=S)cc1OC reported_value=4.1
structure_smiles=N/C(S)=N/N=C/c1ccc([N+](=O)[O-])cc1 reported_value=4.43

Next, consider the following compound.
Lookup: I'd like to know its inhibition at 2 h, 10 µM. The compound in question is "NC(=S)N/N=C/c1csc2ccccc12"
Found: -5.27
